The reported numbers originate from the supplement of paper PMC12636033.

Tested on: WT Max(13-93) synthetic (M65Nle)
Test: PBM 8-mer E-score (E-score (rank enrichment, -0.5 to 0.5)); higher = stronger preferential binding
Over roughly 33,000 sequences, “E-score (rank enrichment, -0.5 to 0.5)” has its median near -0.0075; the highest 2% begin near 0.23. This excerpt belongs to a sample that is enriched for the highest values.
endpoint: PBM 8-mer E-score
Reply with the value as a number alone.

primarysequence=CCCGCCCA endpoint="PBM 8-mer E-score" resultvalue=0.183
primarysequence=CCCATCGA endpoint="PBM 8-mer E-score" resultvalue=-0.073

[in] Form field: reported PBM 8-mer E-score of AATCCTGG
[out] -0.171

[in] What value of PBM 8-mer E-score has been recorded for this entry: CTATTTTA
[out] 0.0787

[in] Quick one: PBM 8-mer E-score for AACACGTC ?
[out] 0.0692
